Target: T1, huCD33-G69-Fc recombinant protein (human, UniProt P20138 18-259);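 also: biolayer interferometry: scFvs captured from periplasmic extracts on anti-V5-loaded streptavidin biosensors, antigen association for 2 min, buffer dissociation for 5 min, 1:1 Langmuir fit giving off-rate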
T1 construct: extracellular domain; also called CD33 R69G
T1 sequence (P20138 18-259 R69G): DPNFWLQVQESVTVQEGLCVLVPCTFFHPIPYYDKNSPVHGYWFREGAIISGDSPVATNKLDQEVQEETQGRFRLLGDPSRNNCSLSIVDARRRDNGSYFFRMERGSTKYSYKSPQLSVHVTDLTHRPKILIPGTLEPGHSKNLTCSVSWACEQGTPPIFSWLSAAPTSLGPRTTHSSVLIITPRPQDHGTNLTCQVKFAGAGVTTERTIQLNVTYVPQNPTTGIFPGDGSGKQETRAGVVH
Test: BLI

>  <BINDER>
Polypeptide No. 139 (scFv, V domains shown, scFv) VH: QVQLVQSGAEVKKPGASVKVSCKASGYTLSDHDINWVRQAPGQGLEWMGWMNPSTGNTGYAQKFQGRVTMTRDTSTSTVYMELSSLRSEDTAVYYCERDQLRFGAWFDPWGQGTLVTVSS VL: DIQMTQSPSSLSASVGDRVTITCRASQGIRNYLAWYQQKPGKAPKLLIYAASSLQSGVPSRFSGSGSGTDFTLTISSLQPEDFATYYCQQSYSIPLTFGGGTKVEIKR

>  <binding result>
binds

$$$$
>  <BINDER>
Polypeptide No. 107 (scFv, V domains shown, scFv) VH: QVQLVQSGAEVKKPGSSVKVSCKASGYTFTDYYIHWVRQAPGQGLEWMGGIIPIFGTANYAQKFQGRVTITADESTSTAYMELSSLRSEDTAVYYCAREPLWFGESSPHDYYGMDVWGQGTLVTVSS VL: DIQMTQSPSSLSASVGDRVTITCQASQDISNYLNWYQQKPGKAPKLLIYAASTLQSGVPSRFSGSGSGTDFTLTISSLQPEDFATYYCQQSYSSPPTFGQGTKVEIKR

>  <binding result>
binds

$$$$
>  <BINDER>
Polypeptide No. 96 (scFv, V domains shown, scFv) VH: QVQLVQSGAEVKKPGASVKVSCKASGGTFSSYAISWVRQAPGQGLEWMGWMNPSSANTGYAQKFQGRVTMTRDTSTSTVYMELSSLRSEDTAVYYCAKDEMELLTAFDIWGQGTMVTVSS VL: DIQMTQSPSSLSASVGDRVTITCRASQSIGSWLAWYQQKPGKAPKLLIYGVSTLHSGVPSRFSGSGSGTDFTLTISSLQPEDFATYYCQQSYSTPPTFGQGTKLEIKR

>  <binding result>
binds

$$$$
